PROTOCOL SUMMARY: EBV LMP1-driven NF-kappaB luciferase reporter inhibitors, primary screen, cell-based, luminescence, single point (AID 504558);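 also: 0% = neutral control wells and 100% = reference inhibitor control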
CONDITION INFO: LMP1-induced NF-kappaB luciferase reporter cells, at 12.5 µM, active compounds read high
The campaign covered roughly 350,000 compounds. About 2,400 (0.69%) were called active. For the sample, actives were picked, then their nearest neighbours and some compounds at random.
EXPERIMENTAL ENDPOINT: inhibition (%)
Numbers only; they are read as %.

| COMPOUND | inhibition [%] |
| --- | --- |
| O=C(O)CCCc1ccccc1 | 65.7 |
| Cc1ccn2cc(C(=O)NC3CCN(Cc4ccccc4)CC3)nc2c1 | 5.73 |

## Task I have this compound here, COc1ccc(-c2cc3ncccc3cn2)cc1 , and I need its recorded inhibition.
## Result -15.8

## Task // repeat for Cc1ccc(-c2cc(N)on2)cc1 and report
## Result -11.1

## Task // repeat for Cc1ccc(-c2nc3ccc(Cl)cn3c2Cc2ccccc2)cc1 and report
## Result -21.9

## Task // repeat for COc1cccc(NC(=O)Nc2ccc(F)cc2)c1 and report
## Result -3.33

## Task // repeat for COc1ccc(NC(=O)/C(Cl)=C(/Cl)S(=O)Cc2ccc(C)cc2)cn1 (configuration not stated) and report
## Result 94.5

## Task // repeat for CC(/C=N/NC(=O)c1cc(-c2ccc3ccccc3c2)n[nH]1)=C\c1ccco1 and report
## Result -39.1

## Task // repeat for CCN1CCCC1CNC(=O)c1ccc2c(c1)NC(=O)/C(=C\c1ccccc1F)S2 (configuration not stated) and report
## Result -8.19

## Task // repeat for O=C(O)CCC(=O)N(Cc1ccccc1)Cc1ccccc1 and report
## Result -12

## Task // repeat for CCC(C)NC(=O)CCCc1ccccc1 (configuration not stated) and report
## Result -18

## Task // repeat for COc1ccc(-c2cn3ccc(C)cc3n2)cc1 and report
## Result 48.2

----------
PROTOCOL SUMMARY: EBV LMP1-driven NF-kappaB luciferase reporter inhibitors, primary screen, cell-based, luminescence, single point (AID 504558);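 also: 0% = neutral control wells and 100% = reference inhibitor control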
CONDITION INFO: LMP1-induced NF-kappaB luciferase reporter cells, at 12.5 µM, active compounds read high
The campaign covered roughly 350,000 compounds. About 2,400 (0.69%) were called active. The list comes from a sample in which actives are over-represented; it also holds close analogues and randomly drawn compounds.
EXPERIMENTAL ENDPOINT: inhibition (%)
Numbers only; they are read as %.

## Task I have this molecule here, Cc1cccc(NC(=O)c2nc(S(=O)(=O)Cc3ccccc3)ncc2Cl)c1 , and I need its recorded inhibition.
## Result 19.5

## Task // repeat for NC(CSC(c1ccccc1)(c1ccccc1)c1ccc(-c2ccccc2)cc1)C(=O)O (stereo not given) and report
## Result -1.87

## Task // repeat for COc1cccc2c1C(=O)c1c(O)c3c(c(O)c1C2=O)CC(O)(C(C)=NNC(=O)c1ccc(Cl)c(Cl)c1)CC3OC1CC(N)C(O)C(C)O1 (stereo not given) and report
## Result 70

## Task // repeat for CC1CN(C(=O)c2cccc(NS(=O)(=O)c3ccc(Br)cc3)c2)CC(C)O1 (stereo not given) and report
## Result 0.834

## Task // repeat for O=C1CCC(=O)N1CCC(=O)N(C(=O)NC1CCCCC1)C1CCCCC1 and report
## Result -0.58

## Task // repeat for Cn1ncc([N+](=O)[O-])c1C(=O)Nc1cc(Cl)ccc1Cl and report
## Result 1.05
